The values you see were collected from paper PMC4072508.

# Target: Bcl-xL, Q07817
# Sequence (Q07817 1-209): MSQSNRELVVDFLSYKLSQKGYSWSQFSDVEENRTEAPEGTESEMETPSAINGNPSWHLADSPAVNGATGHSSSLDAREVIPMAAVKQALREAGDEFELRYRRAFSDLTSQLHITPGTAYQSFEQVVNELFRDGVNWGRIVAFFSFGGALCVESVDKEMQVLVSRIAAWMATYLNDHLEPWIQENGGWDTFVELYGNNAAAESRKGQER
# Protocol Details: fluorescence polarisation, direct titration of receptor into 10 nM labelled peptide
pKd: −log10 of the molar value.
Label satisfied when pKd is at or above 7; anything below gets not satisfied.

- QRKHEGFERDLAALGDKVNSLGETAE [SPTAN1]: not satisfied
- TRRSMVFARHLREVGDEFRSRHLNST [POFUT2]: satisfied
- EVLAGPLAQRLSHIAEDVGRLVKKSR [ARHGAP4]: not satisfied
- FERVEQMCIQIKEVGDRVNYIKRSLQ [TRPM7]: not satisfied
- ATKRETAATFLKKVAKEFGFQNNGFS [NPLOC4]: not satisfied
- RVCPYYLSRNLKQQADIIFMPYNYLL [RTEL1]: not satisfied
